system_tested: human NKp30 (human) (UniProt O14931)
Sequence (O14931 19-135 limits assumed): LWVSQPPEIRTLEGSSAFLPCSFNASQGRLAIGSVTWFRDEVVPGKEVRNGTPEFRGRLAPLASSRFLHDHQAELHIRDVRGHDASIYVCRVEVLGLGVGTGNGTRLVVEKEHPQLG
experiment: BLI, immunoligand on anti-hFc tip
measure_name: kon (M⁻¹ s⁻¹)
Record the value in M⁻¹ s⁻¹, omitting the unit from your answer.

Examples from the recorded data:
[[record]]
binder = "ΔB7-H6_S3#17-SEED-PGLALA (bispecific antibody, part only; not given: SEED Fc chains and hu225 EGFR Fab, part only) chain, part: DLKVEMMAGGTQITPLNDNVTIFCNIFYSQPLNITSMGITWFWKSLTFDKEVKVFEFYGDHQEAFRPGAIVSPWRLKSGDASLRLPGIQLEEAGEYRCEVFVTPLKAQGTVQLEVVASPAS"
measure_name = "kon"
quantitative_readout = 969000

[[record]]
binder = "ΔB7-H6_S3#15-SEED-PGLALA (bispecific antibody, part only; not given: SEED Fc chains and hu225 Fab, part only) chain, part: DLKVEMMAGGTQITPLNDNVTIFCNIFYSQPLNITIMGITWFWKSLTFDKEVKVFEFWGDHQEAFRPGAIVSPWRLKSGDASLRLPGIQLEEAGEYRCEVVVTPYKAQGTVQLEVVASPAS"
measure_name = "kon"
quantitative_readout = 817000

[[record]]
binder = "ΔB7-H6_S2#10-SEED-PGLALA (bispecific antibody, part only; not given: SEED Fc chains and hu225 EGFR Fab, part only) chain, part: DLKVEMMAGGTQITPLNDNVTIFCNIFYSQPLNITLMGITWFWKSLTFDKEVKVFEFWGDHQEAFRPGAIVSPWGLKSGDASLRLPGIQLEEAGEYRCEVVVTPLKAQGTVQLEVVASPAS"
measure_name = "kon"
quantitative_readout = 597000

[[record]]
binder = "ΔB7-H6_S3#29-SEED-PGLALA (bispecific antibody, part only; not given: SEED Fc chains and hu225 EGFR Fab, part only) chain, part: DLKVEMMAGGTQITPLNDNVTIFCNIFYSQPLNITVMGITWFWKSLTFDKEVKVFEFWGDHQEAFRPGAIVSPWRLKSGDASLRLPGIQLEEAGEYRCEVIVTPYKAQGTVQLEVVASPAS"
measure_name = "kon"
quantitative_readout = 705000

[[record]]
binder = "ΔB7-H6_S3#11-SEED-PGLALA (bispecific antibody, part only; not given: SEED Fc chains and hu225 Fab, part only) chain, part: DLKVEMMAGGTQITPLNDNVTIFCNIFYSQPLNITLMGITWFWKSLTFDKEVKVFEFWGDHQEAFRPGAIVSPWRLKSGDASLRLPGIQLEEAGEYRCEVIVTPFKAQGTVQLEVVASPAS"
measure_name = "kon"
quantitative_readout = "1.11e+06"

[[record]]
binder = "ΔB7-H6_S3#7-SEED-PGLALA (bispecific antibody, part only; not given: SEED Fc chains and hu225 Fab, part only) chain, part: DLKVEMMAGGTQITPLNDNVTIFCNIFYSQPLNITHMGITWFWKSLTFDKEVKVFEFYGDHQEAFRPGAIVSPWRLKSGDASLRLPGIQLEEAGEYRCEVVVTPYKAQGTVQLEVVASPAS"
measure_name = "kon"
quantitative_readout = 478000

[[record]]
binder = "ΔB7-H6_S3#18-SEED-PGLALA (bispecific antibody, part only; not given: SEED Fc chains and hu225 Fab, part only) chain, part: DLKVEMMAGGTQITPLNDNVTIFCNIFYSQPLNITYMGITWFWKSLTFDKEVKVFEFWGDHQEAFRPGAIVSPWRLKSGDASLRLPGIQLEEAGEYRCEVVVTPYKAQGTVQLEVVASPAS"
measure_name = "kon"
quantitative_readout = "1.5e+06"


In the following, a different binder is considered.
Request the reported kon associated with ΔB7-H6_S3#30-SEED-PGLALA (bispecific antibody, part only; not given: SEED Fc chains and hu225 Fab, part only) chain, part: DLKVEMMAGGTQITPLNDNVTIFCNIFYSQPLNITEMGITWFWKSLTFDKEVKVFEFWGDHQEAFRPGAIVSPWRLKSGDASLRLPGIQLEEAGEYRCEVIVTPLKAQGTVQLEVVASPAS
622000
